assay: protein stability index of a GFP-peptide fusion (GPS, HEK-293T) (PSI 1-6); higher = more stable; settings: treatment: DMSO; c terminus: a fixed tail appended;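 note: 24-mer peptide tiles fused after GFP, lentivirally expressed, FACS-sorted into six equal bins by GFP/DsRed ratio, decoded by Illumina sequencing, PSI is the read-weighted mean bin number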
Could you please classify the records by protein stability index using these ranges: LOW = under 3, MID = from 3 up to 4, HIGH = 4 and over

Q. Assign a bin to YVVLAYTLPPASRFIIIFEQIRFV [SOAT1]
A. MID

Q. Assign a bin to SGTQYVSTRQTQSWTAVTPQQTWA [C18orf25]
A. LOW

Q. Assign a bin to FCQTDQTCICYLCMFQEHKNHSTV [TRIM29]
A. LOW

Q. Assign a bin to FNKDLVQDCGFEHLVPVIEMWADQ [CEP70]
A. LOW

Q. Assign a bin to GLQDTITAELVVIEDAAEPKEPAP [PALM]
A. HIGH

Q. Assign a bin to AWLEGRIRQEFDKLREFLRVEEQA [TRIM35]
A. LOW

Q. Assign a bin to YPTSDQEGDPGSKQPRKKRGRYRQ [LCOR]
A. HIGH

Q. Assign a bin to LKKDKKKEEKEDEISLEDLIERER [ZC3H15]
A. HIGH

Q. Assign a bin to AAGQRSRPSTYYELLGVHPGASTE [DNAJC4]
A. MID

Q. Assign a bin to DYPYSPPTFRFLTKMWHPNIYENG [UBE2R2]
A. LOW

Q. Assign a bin to GQRLAVCVPAHPPPCAWACPVPAH [CTBP1-DT]
A. LOW

Q. Assign a bin to KEEREDTPIQLQELLALETALGGQ [TCAP]
A. HIGH

Q. Assign a bin to GVADFSATYLRCQLLLIKALQEKL [INTS4]
A. LOW

Q. Assign a bin to LRQLGCKDGKNWNSNQATDIMETS [SPOPL]
A. HIGH

Q. Assign a bin to AQKISKGADPKSVVCAFFKQGQCT [ZC3H15]
A. MID

Q. Assign a bin to DKEGHLVCRIGDWLQERYEIVGNL [CLK3]
A. LOW

Q. Assign a bin to NVEHYQELKKMVQQSDLGQYVTFL [ALG2]
A. LOW

Q. Assign a bin to MSYFGEHFWGEKNHGFEVLYHSVK [FCHO1]
A. LOW

Q. Assign a bin to VPHWINSNTLGFGTEQAPYGMQTQ [ETS2]
A. LOW

Q. Assign a bin to LDTGTNYDYVREFKRSTGTWHHTK [GAN]
A. MID

Q. Assign a bin to MPCTWVMACAYAPSGCAIACGGLD [GNB5]
A. LOW

Q. Assign a bin to NSTQADEGKTKKGVLEAPDTQVNP [FBXO34]
A. HIGH

Q. Assign a bin to HHKVYDLTKFLEEHPGGEEVLREQ [CYB5A]
A. HIGH

Q. Assign a bin to DPVVNGERSGCALTDAVAPGNKGR [TCF25]
A. HIGH

Q. Assign a bin to LEEVERAILEMKWKVRAEKEACQR [ZBED2]
A. MID

Q. Assign a bin to KKIVHYTCFDQRKRANAAFLIGAY [CDC14A]
A. LOW

Q. Assign a bin to QQLLPPFPSLHQSLPQNQCYMATT [EHMT1]
A. MID

Q. Assign a bin to FSINSRLASSLGNLNAATDDPENK [CDC14A]
A. HIGH

Q. Assign a bin to FCSVIRINSTAPFEEQENYFLLCD [ZNF277]
A. LOW

Q. Assign a bin to ADAVNLTIPASLDLSPLLGFWQLP [PLAGL1]
A. LOW

Q. Assign a bin to PPGNVYWPLRGKREAMLEMLLQHQ [SPAG8]
A. LOW

Q. Assign a bin to FRGRRDVSGSWERDQQVEAAQRAL [RETREG3]
A. HIGH

Q. Assign a bin to REHVCRKDQRNPPSLGRVLPDPRE [RBMY1A1]
A. HIGH
